SYSTEM: UniProt P42330
Sequence (P42330 whole entry): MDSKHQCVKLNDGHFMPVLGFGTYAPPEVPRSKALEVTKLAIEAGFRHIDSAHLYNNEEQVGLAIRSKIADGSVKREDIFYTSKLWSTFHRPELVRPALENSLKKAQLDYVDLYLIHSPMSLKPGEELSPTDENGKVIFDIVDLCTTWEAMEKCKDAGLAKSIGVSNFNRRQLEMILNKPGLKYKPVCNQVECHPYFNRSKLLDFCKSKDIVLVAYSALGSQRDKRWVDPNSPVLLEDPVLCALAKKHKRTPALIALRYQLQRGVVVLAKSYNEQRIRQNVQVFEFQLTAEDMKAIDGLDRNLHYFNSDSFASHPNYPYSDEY
TEST_NAME: AKR1C3 catalyzed reduction of Δ4-AD
Format: biochemical
MEASUREMENT_CONDITIONS: E.NADPH.I complex; read-out: Ki, competitive inhibition of AKR1C3 catalyzed reduction of Δ4-AD
EXPERIMENTAL_READOUT: Ki (nM)
Numbers only, in nM.

Q) # query: Ki of entry CC[C@@H](C(=O)O)c1ccc2cc(OC)ccc2c1 [LM5750B 8a]
A) 750
